Data origin: PubChem BioAssay (NCI)

TGI reference
# Tested on: NCI-H460 lung
# EXPERIMENT_SUMMARY: NCI tumour cell line growth inhibition, 48 h

>>> result("NC1=Nc2ccccc2Sc2nnc(-c3ccc(Cl)cc3)n21")
"> 100 µM"
>>> result("Nc1nnc(-c2ccco2)c(-c2ccco2)n1")
"> 100 µM"
>>> result("N#Cc1ccc(OCc2ccc3nc(-c4ccccc4)c(Cl)nc3c2)cc1")
"> 100 µM"

Request: What measured TGI goes with "CC(C)(Br)C(=O)/C=C/c1ccccc1" ?
Result: 63.4 µM

Request: Likewise for Cc1ccc2c(c1)ncn2-c1ncnc2c1CC(C)c1ccccc1N2C (stereo not given) ?
Result: 11.3 µM

Request: Query "O=C1C=CC(=O)c2c(O)c(N[C@@H](Cc3ccccc3)C(=O)OCc3ccccc3)c(Cl)c(O)c21" next
Result: > 10 µM

Request: Try the compound C=C(C)[C@@H]1CC[C@@]2(C)[C@H]1[C@H]1CCC3[C@@]4(C)CC[C@H](O)C(C)(C)[C@@H]4CC[C@@]3(C)[C@]1(C)C[C@@H]2O (stereo not given in full)
Result: > 100 µM

Request: What would you report for "CC[CH2][Pb]([CH2]CC)([CH2]CC)[NH]S(=O)(=O)c1ccc(C)cc1" ?
Result: 0.277 µM

Request: And what about the compound O=C(CC(C(=O)c1cccs1)c1ccsc1)c1ccsc1 (stereo not given) ?
Result: > 100 µM

Request: Subsequent entry: O=C1CCC2(c3ccccc3)Nc3cc(Cl)ccc3N12 (stereo not given)
Result: > 100 µM
